# Tested on: c-jun mRNA
# experimental details: c-jun mRNA expression in TPA-induced A549 cells, Northern blotting
# Assay type: cell-based, human
# study conditions: 400 nM oligonucleotide, TPA-induced A549 cells
Strand notation (5' to 3'): a small letter for the sugar, then the base; units joined by * are phosphorothioate-linked, units joined directly phosphodiester-linked; [ ] holds rarer units or linkages, { } end groups; capitals alone tell only the bases. d = 2'-deoxy (DNA)

{"columns": ["substance", "inhibition of c-jun mRNA expression [%]"],
 "data": [
  ["GTG-TCT-CGC-CGG-GCA-TCT-CG (dG*dT*dG*dT*dC*dT*dC*dG*dC*dC*dG*dG*dG*dC*dA*dT*dC*dT*dC*dG; antisense) [ISIS 10580]", 81],
  ["TCA-GCC-CCC-GAC-GGT-CTC-TC (dT*dC*dA*dG*dC*dC*dC*dC*dC*dG*dA*dC*dG*dG*dT*dC*dT*dC*dT*dC; antisense) [ISIS 10582]", 83],
  ["CCC-CCG-ACC-GTC-TCT-CTT-CA (dC*dC*dC*dC*dC*dG*dA*dC*dC*dG*dT*dC*dT*dC*dT*dC*dT*dT*dC*dA; antisense) [ISIS 10581]", 76],
  ["TGC-CCC-TCA-GCC-CCC-GAC-GG (dT*dG*dC*dC*dC*dC*dT*dC*dA*dG*dC*dC*dC*dC*dC*dG*dA*dC*dG*dG; antisense) [ISIS 10583]", 80]
]}

----------
Recorded MMP-9 (expression) values for a group of substances are listed next.
# Test system: MMP-9
# experimental details: MMP-9 expression in TPA-induced normal human epidermal keratinocytes
# Assay type: cell-based
# study conditions: Table 17; NHEK cells harvested 24 hours after TPA treatment for 4 hours; TPA - no oligo = 100, basal = 4
# Source text: The matrix metalloproteinases (MMPs) are a family of enzymes which have the ability to degrade components of the extracellular matrix (Birkedal-Hansen, Current Op. Biol., 1995, 7, 728). […] In particular, one member of this family, matrix metalloproteinase-9 (MMP-9), is often found to be expressed only in tumors and other diseased tissues (Himeistein et al., Invasion & Metastasis, 1994, 14, 246). […]
Strand notation (5' to 3'): a small letter for the sugar, then the base; units joined by * are phosphorothioate-linked, units joined directly phosphodiester-linked; [ ] holds rarer units or linkages, { } end groups; capitals alone tell only the bases. d = 2'-deoxy (DNA)
recorded endpoint: MMP-9 (expression)

{"columns": ["substance", "recorded endpoint", "numeric value"],
 "data": [
  ["TCG-GCA-CCT-GAA-GGA-CTT-TC (dT*dC*dG*dG*dC*dA*dC*dC*dT*dG*dA*dA*dG*dG*dA*dC*dT*dT*dT*dC; antisense) [ISIS 11564]", "MMP-9 (expression)", 89],
  ["CAC-CTC-CAC-GCG-CTT-CTG-GC (dC*dA*dC*dC*dT*dC*dC*dA*dC*dG*dC*dG*dC*dT*dT*dC*dT*dG*dG*dC; antisense) [ISIS 11563]", "MMP-9 (expression)", 95],
  ["TCA-GCC-CCC-GAC-GGT-CTC-TC (dT*dC*dA*dG*dC*dC*dC*dC*dC*dG*dA*dC*dG*dG*dT*dC*dT*dC*dT*dC; antisense) [ISIS 10582]", "MMP-9 (expression)", 6],
  ["GAG-AGA-CCG-TCG-GGC-GCT-GA (GAGAGACCGTCGGGGGCTGA; listed as DNA, chemistry not given here) [ISIS 11562]", "MMP-9 (expression)", 99]
]}
